# Tested on: Human immunodeficiency virus 2
# method: Antiviral activity against HIV 2 ROD in HeLa-CD4/CCR5 cells assessed as inhibition of viral infectivity after 48 hrs by MAGI assay
# Format: functional, organism-based
# measurement conditions: Human immunodeficiency virus 2, ISOLATE ROD, MAGI-CCR5, 48 h
endpoint label: EC50 (nM)

[P] N=C1Sc2ccccc2C2=NCCCN12
[Q] N=C1Sc2cc(-c3ccc4c(c3)OCO4)ccc2C2=NCCCN12
Exam item: // returns P or Q , whichever has the lower EC50 # reply format: chosen label
Marked response: Q
(Q: 100 nM, P: 300 nM)

---

# System: Human immunodeficiency virus 1
# method: Antiviral activity against HIV 1 BaL in HeLa-CD4/CCR5 cells assessed as inhibition of viral infectivity after 48 hrs by MAGI assay
# Format: functional, organism-based
# measurement conditions: Human immunodeficiency virus 1, BaL, MAGI-CCR5, 48 h
pEC50: −log10 of the molar value.
endpoint label: pEC50

[a] N=C1Sc2ccccc2C2=NCCCN12
[b] N=C1Sc2cc(-c3ccc4c(c3)OCO4)ccc2C2=NCCCN12
Exam item: // compare measured pEC50 between a and b ; output the lower one Your answer should be the label attached to the chosen record.
Marked response: a

Values from ChEMBL document CHEMBL2157882
